Form field: IC50 (one value per entry).
STUDY TARGET: cellular PARG (Homo sapiens, UniProt Q86W56)
Construct: endogenous in cells
Sequence (Q86W56 whole entry): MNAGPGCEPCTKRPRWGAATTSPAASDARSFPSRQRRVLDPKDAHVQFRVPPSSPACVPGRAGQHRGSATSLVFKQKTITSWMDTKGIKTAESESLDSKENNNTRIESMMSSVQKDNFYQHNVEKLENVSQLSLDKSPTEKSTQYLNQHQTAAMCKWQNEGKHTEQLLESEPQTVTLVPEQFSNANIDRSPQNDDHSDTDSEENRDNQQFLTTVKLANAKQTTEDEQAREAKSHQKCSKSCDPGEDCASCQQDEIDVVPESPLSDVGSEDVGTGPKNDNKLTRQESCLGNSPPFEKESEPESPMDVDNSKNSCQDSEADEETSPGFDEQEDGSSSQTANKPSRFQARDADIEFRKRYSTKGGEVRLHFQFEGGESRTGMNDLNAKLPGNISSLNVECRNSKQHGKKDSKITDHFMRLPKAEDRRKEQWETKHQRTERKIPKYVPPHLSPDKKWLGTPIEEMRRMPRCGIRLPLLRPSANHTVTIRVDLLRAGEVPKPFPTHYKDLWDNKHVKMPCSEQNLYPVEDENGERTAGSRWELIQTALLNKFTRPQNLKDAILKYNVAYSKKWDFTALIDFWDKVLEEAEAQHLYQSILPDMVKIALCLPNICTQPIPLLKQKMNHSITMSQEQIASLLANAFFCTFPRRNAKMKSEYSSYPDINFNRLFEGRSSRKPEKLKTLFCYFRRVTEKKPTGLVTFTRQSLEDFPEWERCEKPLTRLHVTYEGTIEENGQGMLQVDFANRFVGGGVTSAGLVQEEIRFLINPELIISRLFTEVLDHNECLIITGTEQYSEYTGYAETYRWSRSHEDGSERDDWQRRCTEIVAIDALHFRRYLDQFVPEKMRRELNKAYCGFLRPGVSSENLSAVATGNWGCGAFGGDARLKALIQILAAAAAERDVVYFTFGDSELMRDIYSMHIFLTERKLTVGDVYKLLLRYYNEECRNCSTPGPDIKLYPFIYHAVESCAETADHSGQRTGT
ASSAY PROCEDURE: Nuclear PAR accumulation assay (immunofluorescence high-content imaging, MMS-treated HeLa cells)
EXPERIMENTAL SETUP: 1 hour compound then MMS 50 μg/mL for an additional hour

The examples below pair each entry with its known result.
| COMPOUND | OUTCOME MEASURE | RESULT |
| --- | --- | --- |
| Cn1cc(CN2C(=O)c3cc(S(=O)(=O)NC4(C)CC4)ccc3N3C2=N[C@H]2COCC[C@H]23)cn1 [Example 158] | IC50 | 100 to 1000 nM |
| CN1C(=O)c2cc(S(=O)(=O)NC3(C)CC3)ccc2N2C1=NC[C@H]2C#CC1(N(C)C)CC1 [Example 129] | IC50 | < 100 nM |
| [2H]C([2H])(c1cnn(C)c1)N1C(=O)c2cc(S(=O)(=O)NC3(C)CC3)ccc2N2C1=N[C@@H]1C[C@@H](N(C)C)C[C@@H]12 [Example 285] | IC50 | 100 to 1000 nM |
| Cn1cc(CN2C(=O)c3cc(S(=O)(=O)NC4(C)CC4)ccc3N3C2=N[C@H]2CCCC[C@H]23)cn1 [Example 145] | IC50 | < 100 nM |
| COc1ccc(CN2C(=O)c3cc(S(=O)(=O)NC4(C)CC4)ccc3N3C2=NC[C@H]3C)cc1 [Example 9] | IC50 | 100 to 1000 nM |
| Cc1cc(F)ccc1-c1cc(S(=O)(=O)NC2(C)CC2)cc2c1N1CC(C)(C)N=C1N(C)C2=O [Example 61] | IC50 | 100 to 1000 nM |

Now look at this one.
Exercise: # query: IC50 of entry CN1C(=O)c2cc(S(=O)(=O)NC3(C)CC3)ccc2N2C1=NCC2C#Cc1ccnc(C(F)(F)F)c1 (stereo not shown) [Example 226]
Solution: 100 to 1000 nM
